- Tested on: HepG2
- Assay Remarks: cytotoxicity call (relative viability < 0.9)
- Protocol Conditions: 10 µM
Hit rate of the full screen: of about 39,000 compounds, about 3,300 (8.5%) were called active. The full list was thinned out, with actives kept by preference.
Outcomes: t (active), f (inactive)

Structure Smiles | Assayed Target | Qualitative Label
COc1ccc2c3c(n(c2c1)C)[C@H](CO)N(C[C@]13CCN(CC1)C(=O)c1cccnc1)C(=O)c1cccnc1 | HepG2 | f
C[C@@H]1CCCCO[C@H](CN(C)C(=O)c2ccccc2)[C@@H](C)CN([C@@H](C)CO)C(=O)c2cc(NC(=O)Cc3ccccc3)ccc2O1 | HepG2 | f
C[C@H](CO)N1C[C@H](C)[C@H](CN(C)Cc2ccc(C(F)(F)F)cc2)Oc2ccc(NC(=O)Nc3ccc(C(F)(F)F)cc3)cc2CC1=O | HepG2 | t
Cc1ccc(-c2ccc3c(c2)O[C@H](CN(C)C(=O)NC(C)C)[C@H](C)CN([C@@H](C)CO)S3(=O)=O)cc1 | HepG2 | f
C[C@@H]1CN([C@H](C)CO)C(=O)c2cc(NS(C)(=O)=O)ccc2O[C@@H]1CN(C)S(=O)(=O)c1ccc(F)cc1 | HepG2 | f
C[C@@H]1CCCCO[C@H](CN(C)Cc2ccncc2)[C@H](C)CN([C@H](C)CO)C(=O)c2cc(NC(=O)Nc3ccc(C(F)(F)F)cc3)ccc2O1 | HepG2 | t
CC(C)(C)OC(=O)C[C@@H]1CC=CC[C@@H](CC(=O)NCCO)C(=O)N[C@@H](Cc2c[nH]c3ccccc23)COC1=O | HepG2 | f
C[C@H](CO)N1C[C@H](C)[C@@H](CN(C)Cc2ccc(C(F)(F)F)cc2)Oc2ccc(NC(=O)Nc3ccc(C(F)(F)F)cc3)cc2CC1=O | HepG2 | t
C[C@@H]1CN([C@H](C)CO)C(=O)Cc2cc(NC(=O)CCC(F)(F)F)ccc2O[C@@H]1CN(C)Cc1ccc(C(F)(F)F)cc1 | HepG2 | f
C[C@H](CO)N1C[C@H](C)[C@@H](CN(C)Cc2ccncc2)OCCCC[C@H](C)Oc2ccc(NC(=O)Nc3ccc(C(F)(F)F)cc3)cc2C1=O | HepG2 | f
COCCOC(=O)N1C(=O)[C@@]2(c3cc(C#CCNC(N)=O)ccc31)[C@H](C(=O)N1CCCCCCC1)[C@H]1C(=O)O[C@H](c3ccccc3)[C@H](c3ccccc3)N1[C@@H]2c1ccccc1OCCO | HepG2 | f
CC(C)NC(=O)Nc1ccc2c(c1)CC(=O)N([C@@H](C)CO)C[C@H](C)[C@@H](CN(C)Cc1ccc(C(=O)O)cc1)O2 | HepG2 | f
C[C@H]1CN([C@@H](C)CO)C(=O)Cc2cc(NC(=O)CCC(F)(F)F)ccc2O[C@@H]1CN(C)Cc1ccc(C(F)(F)F)cc1 | HepG2 | f
